Source: paper PMC5615192

B1: unnamed (parent)
chain 1: EVQLQQSGAELVRPGALVKLSCKASGFNIKDYYMHWVKQRPEQGLEWIGWIDPENGKTIYDPRFRGKASITADTSSNTAYLQLSSLTSEDAAVYYCATSNYRYDRSFDYWGQGTTLTVSAKTTPPSVYPLAPGCGDTTGSSVTSGCLVKGYFPEPVTVTWNSGSLSSSVHTFPALLQSGLYTMSSSVTVPSSTWPSQTVTCSVAHPASSTTVDKKL
chain 2: DIQMTQSPSSLFASLGGKVTITCKASQDINKYIAWFQHKPGKGPRLLIHYTFTLQPGIPSRFSGSGSGRDYSFSISNLEPEDIATYYCLQYHNLYTFGGGTKLEIKRADAAPTVSIFPPSSEQLTSGGASVVCFLNNFYPKDINVKWKIDGSERQNGVLNSWTDQDSKDSTYSMSSTLTLTKDEYERHNSYTCEATHKTSTSPIVKSFNRNEC
chain 3: EATVYLPPVPVSKVVSTDEYVSRTSIYYYAGSSRLLAVGNPYFSIKSPNNNKKVLVPKVSGLQYRVFRVRLPDPNKFGFPDTSFYNPDTQRLVWACVGLEIGRGQPLGVGVSGHPYLNKFDDTETSNRYPAQPGSDNRECLSMDYKQTQLCLIGCKPPTGEHWGKGVACNNNAAATDCPPLELFNSIIEDGDMVDTGFGCMDFGTLQANKSDVPIDICNSTCKYPDYLKMASEPYGDSLFFFLRREQMFVRHFFNRAGKLGEAVPDDLYIKGSGNTAVIQSSAFFPTPSGSIVTSESQLFNKPYWLQRAQGHNNGICWGNQLFVTVVDTTRSTNMTLCTEVTKEGTYKNDNFKEYVRHVEEYDLQFVFQLCKITLTAEIMTYIHTMDSNILEDWQFGLTPPPSASLQDTYRFVTSQAITCQKTAPPKEKEDPLNKYTFWEVNLKEKFSADLDQFPLGRKFLLQSGLKAKPRLKRSAPTTRAPSTKRKKVKK

# Variants of: B1
# TEST: indirect ELISA
# ASSAY CONDITIONS: with partner chain of the complex shown
# note: boundary value 50 ng/mL maps to no; EC50 below it maps to yes

// known answers, use as guide
chain 3 S135A :: yes
chain 3 D121A :: no
chain 3 N137A :: yes
chain 3 N275A :: yes

(Q) Does the reported EC50 of chain 3 Q132A stay below 50 ng/mL?
(A) yes
